# experimentalSystem: human alpha 2A receptor (Homo sapiens)
# Sequence (P08913 whole entry): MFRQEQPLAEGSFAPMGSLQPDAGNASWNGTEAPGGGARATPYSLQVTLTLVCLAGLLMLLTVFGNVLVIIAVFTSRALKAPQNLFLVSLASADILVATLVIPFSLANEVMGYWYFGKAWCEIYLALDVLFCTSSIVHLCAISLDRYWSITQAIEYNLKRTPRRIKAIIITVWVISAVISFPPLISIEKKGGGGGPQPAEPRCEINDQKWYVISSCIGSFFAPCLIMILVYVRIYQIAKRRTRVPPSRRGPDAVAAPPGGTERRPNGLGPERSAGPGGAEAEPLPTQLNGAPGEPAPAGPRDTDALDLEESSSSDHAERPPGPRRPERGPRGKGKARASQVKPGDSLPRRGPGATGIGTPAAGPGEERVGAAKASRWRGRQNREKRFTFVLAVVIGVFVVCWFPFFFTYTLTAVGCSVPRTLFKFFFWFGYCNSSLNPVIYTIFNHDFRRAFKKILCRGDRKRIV
# experimentalProtocol: FLIPR Ca+2 influx assay, a2A
readoutType: pEC50
Units for pEC50: none; it is -log10 of a concentration expressed in mol/L.

(Q) Specify pEC50 for Cc1c(CO)cccc1[C@H](C)c1c[nH]cn1 and stop.
(A) 7.60

---

# experimentalSystem: UniProt:P18130
# Sequence (P18130 whole entry): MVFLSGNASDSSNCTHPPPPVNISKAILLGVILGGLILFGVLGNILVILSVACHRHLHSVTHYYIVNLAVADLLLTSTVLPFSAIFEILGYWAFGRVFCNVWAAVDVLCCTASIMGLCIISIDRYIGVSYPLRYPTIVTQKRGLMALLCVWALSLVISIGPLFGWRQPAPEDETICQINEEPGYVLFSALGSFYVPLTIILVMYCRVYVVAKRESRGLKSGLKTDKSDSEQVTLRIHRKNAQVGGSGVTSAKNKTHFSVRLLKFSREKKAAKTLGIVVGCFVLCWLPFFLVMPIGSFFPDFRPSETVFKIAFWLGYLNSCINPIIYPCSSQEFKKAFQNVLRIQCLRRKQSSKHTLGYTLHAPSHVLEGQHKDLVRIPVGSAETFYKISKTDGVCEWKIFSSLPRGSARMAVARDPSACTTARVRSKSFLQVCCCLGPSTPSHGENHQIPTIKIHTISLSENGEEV
# experimentalProtocol: FLIPR Ca+2 influx assay, a1A
# Assay type: cell-based
# measurementContext: HEK 293 cells with chimeric G protein Gqi5; agonist assay; tested 0.64 nM-10,000 nM; n/a: Not active; read-out: a1A EC50
pEC50: −log10 of the molar value.
readoutType: pEC50

(Q) For UniProt:P18130, give pEC50 of the listed molecule: Brc1c(NC2=NCCN2)ccc2nccnc12
(A) 5.62 to 6.22
